These measurements were taken from patent US20230071609A1.

Target: T1, circulating APOL1 in normal human serum (human, UniProt O14791 28-398)
T1 construct: mature; Serum of healthy volunteers; lipoprotein-associated; also called serum APOL1; HDL APOL1
T1 sequence (looked up): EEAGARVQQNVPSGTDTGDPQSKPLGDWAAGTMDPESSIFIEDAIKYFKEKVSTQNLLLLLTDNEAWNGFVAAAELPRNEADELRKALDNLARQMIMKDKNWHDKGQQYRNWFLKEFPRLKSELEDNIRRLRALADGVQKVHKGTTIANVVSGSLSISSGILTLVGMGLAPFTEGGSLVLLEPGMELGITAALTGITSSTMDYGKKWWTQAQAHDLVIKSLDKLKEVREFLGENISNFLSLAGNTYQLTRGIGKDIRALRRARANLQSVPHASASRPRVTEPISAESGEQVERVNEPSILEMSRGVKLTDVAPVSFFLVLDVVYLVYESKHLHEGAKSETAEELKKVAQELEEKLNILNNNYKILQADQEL
Experiment: summary of the Examples: trypanolysis blocking as proxy for serum APOL1

binder: antibody 4.17A5 (antibody, V domains shown, Mouse mAb (Method #4), cloned as murine IgG2a LALAPG; also called mAb 4.17A5) VH: QVQLQQSGPELLKPGASVKISCKGSGYAFSNSWINWVKLRPGQGLEWIGRIYPGDGDTKYNGKFKGKATLTADKSSSTAHMQLRSLTSVDSAVYFCARFPFGKYEGPGAMDYWGQGTSVTVSS VL: DIQMTQTTSSLSASLGDRVTISCRASQDISSYLNWYQQKPDGTIKLLIYYTSRLHSGVPSRFSGSGSGTDFSLTISNLEQEDIATYFCQQGNTLPYTFGGGTKLEIKR
binding result: binds
//
binder: antibody 3.4G10 (antibody, V domains shown, Mouse mAb, cloned as murine IgG2a LALAPG) VH: DVQLQESGPDLVKPSQSLSLTCTVTGYSITSGESWHWIRHFPGNELEWMGFIHYSGSANYNPSLKSRISITRDTSKNQFFLQLLSVTTDDTATYYCARSVYNYDGAWFPYWGQGTLVTVSA VL: QIVLTQSPVIMSASPGERVTLTCSASSSVSSSYLNWYQLKPGSSPKVWIYRTSNLASGVPARFSGSGSGTSYSLTISSMEAEDAASYFCHQWSAYPPTFGGGTKLEIKR
binding result: binds
//
binder: antibody 4.11H11 (antibody, V domains shown, Mouse mAb, cloned as murine IgG2a LALAPG) VH: EVQVQQSGPELVKPGASMKISCKASGYSFIVYTMNWVKQSHGKNLEWIGLINPYNGGTIYNRKFKGKATLTVDKSSSTAYLELLSLTSEDSAVYYCARGALYRYEGAMDYWGQGTSVIVSS VL: QIVLSQFPAILSASPGEKVTMTCRASSSVIYVHWYQQKPGSSPKPWIYATSNLASGVPARFSGSGSGTSHSLTISRLEAEDTATYYCQQWSSNPLTFGAGTKLEIKR
binding result: binds
